As shown below, each of these molecules has a reported normalized growth value.
assay: chemical genetic growth profiling, strain panel (AID 1159580);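 also: tested at 20 µM; growth read once vehicle control cultures reached saturation at 30 °C; 1 = growth at the plate median or of vehicle wells; lower values mean less growth of the strain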; details: S. cerevisiae deletion strains, growth OD, locus YEL037C, strain rad23, stronger effect = lower value
About 2,000 (36%) of roughly 5,500 compounds were called active. Inconclusive results (about 18%) are left out. The list shows a part of the results.

>  <molecule>
NNCCc1ccccc1

>  <normalized growth>
1.01 (inactive)

$$$$
>  <molecule>
C=C1C2=CC(=O)O[C@@H](c3ccoc3)[C@]2(C)CCC1[C@@]1(C)C=CC(=O)C(C)(C)[C@@H]1CC(=O)OC (some centres undefined)

>  <normalized growth>
1 (inactive)

$$$$
>  <molecule>
C[C@@H]1CC2C3C[C@H](F)C4=CC(=O)C=C[C@]4(C)[C@@]3(F)[C@@H](O)C[C@]2(C)[C@@]1(O)C(=O)COC(=O)C(C)(C)C (some centres undefined)

>  <normalized growth>
0.994 (inactive)

$$$$
>  <molecule>
O=C(O)c1ccccc1C(=O)Nc1ccc(S(=O)(=O)Nc2nccs2)cc1

>  <normalized growth>
0.981 (inactive)

$$$$
>  <molecule>
NC(N)=O

>  <normalized growth>
1.01 (inactive)

$$$$
>  <molecule>
CCOC(=O)[C@H](CCc1ccccc1)N[C@@H](C)C(=O)N1Cc2ccccc2C[C@H]1C(=O)O

>  <normalized growth>
1.01 (inactive)

$$$$
>  <molecule>
C=C1C2CC[C@@]3(C)[C@H](c4ccoc4)OC(=O)C[C@]13O[C@H]1CC(O)C(C)(C)C(CC(=O)OC)[C@@]21C (some centres undefined)

>  <normalized growth>
0.976 (inactive)

$$$$
>  <molecule>
Nc1ccn(C2O[C@H](CO)[C@@H](O)[C@H]2O)c(=O)n1 (some centres undefined)

>  <normalized growth>
0.991 (inactive)

$$$$
>  <molecule>
CC1CCC2(OC1)OC1CC3C4CCC5C[C@@H](O)CCC5(C)C4=CCC3(C)C1[C@@H]2C (some centres undefined)

>  <normalized growth>
1 (inactive)

$$$$
